System: U937 cell line
measurementNotes: MTT assay, toxicity (cell viability), U937
Type: cell-based
conditionDescription: U937, 24 h, 5 μM

compound	system	% Cell viability [%]
COc1ccccc1CCN(CC(N)=O)C(=O)C1CC(=O)N(CCc2ccc(Cl)cc2Cl)CC(=O)N1CCC(c1ccccc1)c1ccccc1 (centres unmarked)	U937 cell line	95
CCCCN(CC(N)=O)C(=O)C1CC(=O)N(CCc2ccc(Cl)cc2Cl)CC(=O)N1CCC(c1ccccc1)c1ccccc1 (centres unmarked)	U937 cell line	95
NC(=O)CN(C(=O)C1CC(=O)N(CCc2ccc(Cl)cc2Cl)CC(=O)N1CCC(c1ccccc1)c1ccccc1)C1CC1 (centres unmarked)	U937 cell line	100
NC(=O)CN(CCc1ccccc1F)C(=O)C1CC(=O)N(CCc2ccc(Cl)cc2Cl)CC(=O)N1CCC(c1ccccc1)c1ccccc1 (centres unmarked)	U937 cell line	98
NC(=O)CN(CCc1ccc(F)cc1)C(=O)C1CC(=O)N(CCc2ccc(Cl)cc2Cl)CC(=O)N1CCC(c1ccccc1)c1ccccc1 (centres unmarked)	U937 cell line	99
NC(=O)CN(CC1CCCO1)C(=O)C1CC(=O)N(CCc2ccc(Cl)cc2Cl)CC(=O)N1CCC(c1ccccc1)c1ccccc1 (centres unmarked)	U937 cell line	99
NC(=O)CN(CCc1ccc(Cl)cc1)C(=O)C1CC(=O)N(CCc2ccc(Cl)cc2Cl)CC(=O)N1CCC(c1ccccc1)c1ccccc1 (centres unmarked)	U937 cell line	98
CC(=O)NCCNC(=O)CNC(=O)C1CC(=O)N(CCc2ccc(Cl)cc2Cl)CC(=O)N1CCC(c1ccccc1)c1ccccc1 (centres unmarked)	U937 cell line	95

---

Collected % Cell viability values appear next to each entry.
System: Saos-2 cell line
measurementNotes: MTT assay, toxicity (cell viability), Saos-2
Type: cell-based
conditionDescription: Saos-2, 48 h, 1 μM

compound	% Cell viability, %
NC(=O)CN(CCc1ccc(F)cc1)C(=O)C1CC(=O)N(CCc2ccc(Cl)cc2Cl)CC(=O)N1CCC(c1ccccc1)c1ccccc1 (stereo not drawn) [I.10]	100
NC(=O)CN(CCc1ccc(Cl)cc1)C(=O)C1CC(=O)N(CCc2ccc(Cl)cc2Cl)CC(=O)N1CCC(c1ccccc1)c1ccccc1 (stereo not drawn) [I.8]	97
NC(=O)CN(CC1CCCO1)C(=O)C1CC(=O)N(CCc2ccc(Cl)cc2Cl)CC(=O)N1CCC(c1ccccc1)c1ccccc1 (stereo not drawn) [I.4]	100
CCCCN(CC(N)=O)C(=O)C1CC(=O)N(CCc2ccc(Cl)cc2Cl)CC(=O)N1CCC(c1ccccc1)c1ccccc1 (stereo not drawn) [I.11]	100
NCCCCC(NC(=O)CN(CCc1ccc(Cl)cc1Cl)C(=O)C1CC(=O)N(CCc2ccc(Cl)cc2Cl)CC(=O)N1CCC(c1ccccc1)c1ccccc1)C(N)=O (stereo not drawn) [IIa.2]	100
NC(=O)CN(C(=O)C1CC(=O)N(CCc2ccc(Cl)cc2Cl)CC(=O)N1CCC(c1ccccc1)c1ccccc1)C1CC1 (stereo not drawn) [I.2]	100
CC(=O)NCCNC(=O)CNC(=O)C1CC(=O)N(CCc2ccc(Cl)cc2Cl)CC(=O)N1CCC(c1ccccc1)c1ccccc1 (stereo not drawn) [I.3]	100
NC(=O)CN(CCc1ccccc1F)C(=O)C1CC(=O)N(CCc2ccc(Cl)cc2Cl)CC(=O)N1CCC(c1ccccc1)c1ccccc1 (stereo not drawn) [I.9]	97
COc1ccccc1CCN(CC(N)=O)C(=O)C1CC(=O)N(CCc2ccc(Cl)cc2Cl)CC(=O)N1CCC(c1ccccc1)c1ccccc1 (stereo not drawn) [I.7]	100
